Exercise: for every item that follows, state its recorded pIC50.
Molecular target: UniProt:P09619
Sequence (P09619 whole entry): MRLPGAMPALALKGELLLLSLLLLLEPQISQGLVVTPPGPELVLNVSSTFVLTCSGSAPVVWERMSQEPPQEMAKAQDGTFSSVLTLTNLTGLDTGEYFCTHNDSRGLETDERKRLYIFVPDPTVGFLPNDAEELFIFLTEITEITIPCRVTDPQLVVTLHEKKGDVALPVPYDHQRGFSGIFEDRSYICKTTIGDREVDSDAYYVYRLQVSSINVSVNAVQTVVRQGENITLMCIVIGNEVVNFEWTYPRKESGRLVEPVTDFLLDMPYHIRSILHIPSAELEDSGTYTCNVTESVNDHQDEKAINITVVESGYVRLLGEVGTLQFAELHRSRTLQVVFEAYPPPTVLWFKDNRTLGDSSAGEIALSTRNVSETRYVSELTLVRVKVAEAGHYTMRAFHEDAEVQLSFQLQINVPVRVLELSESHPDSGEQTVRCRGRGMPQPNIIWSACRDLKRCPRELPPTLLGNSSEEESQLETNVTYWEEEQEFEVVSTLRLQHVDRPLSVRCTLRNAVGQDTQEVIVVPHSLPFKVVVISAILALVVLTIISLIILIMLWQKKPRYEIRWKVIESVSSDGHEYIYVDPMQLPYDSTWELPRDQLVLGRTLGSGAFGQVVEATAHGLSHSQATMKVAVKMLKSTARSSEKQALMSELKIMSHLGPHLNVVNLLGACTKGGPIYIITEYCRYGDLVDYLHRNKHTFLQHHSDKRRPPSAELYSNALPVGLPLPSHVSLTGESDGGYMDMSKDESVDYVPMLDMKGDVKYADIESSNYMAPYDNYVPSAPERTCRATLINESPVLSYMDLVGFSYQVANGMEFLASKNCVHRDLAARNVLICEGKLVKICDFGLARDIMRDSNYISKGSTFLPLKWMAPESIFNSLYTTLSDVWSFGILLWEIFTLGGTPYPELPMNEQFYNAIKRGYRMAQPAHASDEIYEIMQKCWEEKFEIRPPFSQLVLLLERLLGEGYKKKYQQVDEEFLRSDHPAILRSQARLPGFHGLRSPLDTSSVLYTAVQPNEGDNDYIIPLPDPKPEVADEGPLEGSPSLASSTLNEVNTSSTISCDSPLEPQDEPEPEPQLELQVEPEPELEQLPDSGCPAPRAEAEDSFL
Experiment: Inhibition of PDGFRbeta phosphorylation by cell based assay
FYI, pIC50 means -log10 of a concentration in mol per litre.

May I ask what pIC50 has been recorded for COc1cccc(NC(=O)NCc2ccc(Oc3ncnc4cc(OC)c(OC)cc34)cc2)c1 ?
8.05

May I ask what pIC50 has been recorded for COc1cccc(CNC(=O)c2ccc(Oc3ncnc4cc(OC)c(OC)cc34)cc2)c1 ?
6.15

May I ask what pIC50 has been recorded for COc1cccc(NC(=O)Cn2cc(Oc3ccnc4cc(OC)c(OC)cc34)cn2)c1 ?
8.70

May I ask what pIC50 has been recorded for COCCOc1cc2ncnc(Oc3cnn(CC(=O)Nc4cccc(OC)c4)c3)c2cc1OC ?
9.52

May I ask what pIC50 has been recorded for COc1cc2ncnc(Oc3ccc(CC(=O)Nc4ccc(N(C)C)cn4)cc3)c2cc1OC ?
8.30

May I ask what pIC50 has been recorded for COc1cc2ncnc(Oc3ccc(CC(=O)Nc4cnn(C)c4)cc3)c2cc1OC ?
7.40

May I ask what pIC50 has been recorded for CCn1ccc(NC(=O)Cc2ccc(Oc3ncnc4cc(OC)c(OC)cc34)cc2)n1 ?
8.00

May I ask what pIC50 has been recorded for CCn1cc(NC(=O)Cc2ccc(Oc3ncnc4cc(OC)c(OC)cc34)cc2)cn1 ?
8.52

May I ask what pIC50 has been recorded for COc1cccc(NC(=O)Cn2cc(Oc3ncnc4cc(OCCN5CCCC5)c(OC)cc34)cn2)c1 ?
9.00

May I ask what pIC50 has been recorded for CCc1cc(NC(=O)Cc2ccc(Oc3ncnc4cc(OC)c(OC)cc34)cc2)n[nH]1 ?
8.40

May I ask what pIC50 has been recorded for COc1cccc(NC(=O)Cn2cc(Oc3ncnc4cc(OC)c(OCCN5CCCCC5)cc34)cn2)c1 ?
8.52

May I ask what pIC50 has been recorded for CCn1cc(NC(=O)Cn2cc(Oc3ncnc4cc(OC)c(OC)cc34)cn2)cn1 ?
8.40

May I ask what pIC50 has been recorded for COc1cccc(NC(=O)Cc2ccc(Nc3ncnc4cc(OC)c(OC)cc34)cc2)c1 ?
8.00

May I ask what pIC50 has been recorded for COc1cccc(NC(=O)Cn2cc(Oc3ccnc4cc(OC)c(C#N)cc34)cn2)c1 ?
8.70

May I ask what pIC50 has been recorded for COc1cccc(CC(=O)Nc2ccc(Oc3ncnc4cc(OC)c(OC)cc34)cc2)c1 ?
8.40

----------
Assay: Clearance in dog at 10 mg/kg, po
Type: ADME, organism-based, Canis lupus familiaris
Parameters: dose 10 mg/kg, route oral
Conditions: in vivo
Reported Endpoint: CL/F (mL/min/kg)
State the answer as a number, implicitly in mL/min/kg.

May I ask what CL/F has been recorded for COc1cc2ncnc(Oc3ccc(CC(=O)Nc4cnn(C(C)C)c4)cc3)c2cc1OC.O=P(O)(O)O ?
5.2

----------
Assay: Volume of distribution at steady state in rat at 2 mg/kg
Type: ADME, organism-based
Set-up: dose 2 mg/kg
Settings: in vivo, read-out: Vdss
Reported Endpoint: Vd (L/kg)
State the answer as a number, implicitly in L/kg.

May I ask what Vd has been recorded for COc1cc2ncnc(Oc3ccc(CC(=O)Nc4cnn(C(C)C)c4)cc3)c2cc1OC ?
0.8
